- Experimental Protocol: in-vitro plasma protein binding, rats
- Format: in vitro ADME
- Condition Parameters: rat, 0.05 to 50 μg/mL
Quantity Name: fraction unbound

Ask | # input molecule: O=C(Nc1nc(-c2cc(Cl)cs2)c(N2CCN(C3CCCCC3)CC2)s1)c1cnc(N2CCC(C(=O)O)CC2)c(Cl)c1 ; wanted: its fraction unbound
Reply | 0.108 to 0.124

====

- Experimental Protocol: Example 1 single dose study: pharmacokinetics
- Assay type: in vivo, human
- Condition Parameters: both sexes, human, serum, oral, single dose 1 mg to 100 mg, human; independent of the dose; read-out: serum elimination half-life (mean t1/2)
Quantity Name: half-life

Ask | # input compound: O=C(Nc1nc(-c2cc(Cl)cs2)c(N2CCN(C3CCCCC3)CC2)s1)c1cnc(N2CCC(C(=O)O)CC2)c(Cl)c1 ; wanted: its half-life
Reply | 18 to 24 h

====

- Experimental Protocol: Example 1 single dose study: pharmacokinetics
- Format: in vivo, human
- Condition Parameters: both sexes, plasma, oral; 100 mg daily dose, human; read-out: mean AUC0-last
Quantity Name: AUC(0-t)

Ask | # input molecule: O=C(Nc1nc(-c2cc(Cl)cs2)c(N2CCN(C3CCCCC3)CC2)s1)c1cnc(N2CCC(C(=O)O)CC2)c(Cl)c1 ; wanted: its AUC(0-t)
Reply | ~10900 ng·h/mL

====

- Experimental Protocol: Example 2 multi-dose study: pharmacokinetics
- Type: in vivo, human
- Condition Parameters: both sexes, human, in vivo, oral, 3 mg, 3 mg once daily, Study Day 14, mean; read-out: AUC0-last
Quantity Name: AUC(0-t) (ng·h/mL)
Numbers only, in ng·h/mL.

Ask | # input molecule: O=C(Nc1nc(-c2cc(Cl)cs2)c(N2CCN(C3CCCCC3)CC2)s1)c1cnc(N2CCC(C(=O)O)CC2)c(Cl)c1 ; wanted: its AUC(0-t)
Reply | 659

====

- Experimental Protocol: Example 2 multi-dose study: pharmacokinetics
- Type: in vivo, human
- Condition Parameters: both sexes, human, in vivo, oral, 3 mg, 3 mg once daily, Study Day 14, median
Quantity Name: Tmax (h)
Numbers only, in h.

Ask | # input compound: O=C(Nc1nc(-c2cc(Cl)cs2)c(N2CCN(C3CCCCC3)CC2)s1)c1cnc(N2CCC(C(=O)O)CC2)c(Cl)c1 ; wanted: its Tmax
Reply | 6

====

- Experimental Protocol: Example 1 single dose study: pharmacokinetics
- Type: in vivo, human
- Condition Parameters: both sexes, human, plasma, oral, 10 mg, single 10 mg daily dose, human; (±20%); read-out: mean maximum plasma concentration (Cmax)
Quantity Name: Cmax

Ask | # input compound: O=C(Nc1nc(-c2cc(Cl)cs2)c(N2CCN(C3CCCCC3)CC2)s1)c1cnc(N2CCC(C(=O)O)CC2)c(Cl)c1 ; wanted: its Cmax
Reply | 53 to 69 ng/mL

====

- Experimental Protocol: Example 1 single dose study: pharmacokinetics
- Type: in vivo, human
- Condition Parameters: both sexes, human, plasma, po, 75 mg, single oral dose 75 mg, healthy volunteers, final mean; read-out: T½ (converted)
Quantity Name: half-life
Write your answer as a measured quantity: the number, then the unit.

Ask | # input compound: O=C(Nc1nc(-c2cc(Cl)cs2)c(N2CCN(C3CCCCC3)CC2)s1)c1cnc(N2CCC(C(=O)O)CC2)c(Cl)c1 ; wanted: its half-life
Reply | 18.8 h
